assay-system: UniProt:P00374
experiment: Inhibition of human recombinant DHFR expressed in Escherichia coli Rosetta Gami B (DE3) competent cells using DHFA as substrate and NADPH
IC50 less than 1000 nM is TRUE; IC50 greater than or equal to 1000 nM is FALSE.

Some solved cases for reference:
> print(dat)
                         structure.notation  label.value
1      COc1cccc(Sc2c(C)c3c(N)nc(N)nc3n2C)c1        FALSE
2  Cc1c(Sc2cccc3ccccc23)[nH]c2nc(N)nc(N)c12        FALSE
3  Cc1c(Sc2ccc(F)c(F)c2)[nH]c2nc(N)nc(N)c12        FALSE
4  Cc1c(Sc2ccc(F)c(F)c2)n(C)c2nc(N)nc(N)c12        FALSE

# next compound below
Query: Consider the compound COc1cccc(Sc2c(C)c3c(N)nc(N)nc3n2C(C)C)c1 . Is its IC50 strictly less than 1000 nM?
Response: TRUE

* * *

assay-system: Dihydrofolate reductase (Pneumocystis jirovecii)
Sequence (Q9UUP5 whole entry): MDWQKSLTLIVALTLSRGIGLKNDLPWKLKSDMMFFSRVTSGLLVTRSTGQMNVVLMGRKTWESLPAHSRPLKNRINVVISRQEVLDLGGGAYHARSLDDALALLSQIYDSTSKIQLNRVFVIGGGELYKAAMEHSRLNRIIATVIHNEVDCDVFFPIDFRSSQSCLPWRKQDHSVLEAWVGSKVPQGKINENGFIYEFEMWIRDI
experiment: Inhibition of Pneumocystis jirovecii recombinant DHFR expressed in Escherichia coli Rosetta Gami B (DE3) competent cells using DHFA as substrate and NADPH
parameter: pIC50
As a rule, pIC50 stands for the negative log10 of the concentration, concentration in M.

See these solved cases before continuing.
> print(dat)
                         structure.notation  parameter  value
1  Cc1c(Sc2ccc3ccccc3c2)n(C)c2nc(N)nc(N)c12      pIC50   6.89
2        COc1ccccc1Sc1[nH]c2nc(N)nc(N)c2c1C      pIC50   6.75
3  Cc1c(Sc2cccc3ccccc23)[nH]c2nc(N)nc(N)c12      pIC50   6.78

Query: Return pIC50 measured with Dihydrofolate reductase (Pneumocystis jirovecii) given this molecule: Cc1c(Sc2ccc(OC(F)(F)F)cc2)n(C)c2nc(N)nc(N)c12
Response: 6.96

* * *

Consider the following molecules and their measured selectivity ratio readings.
System: DHFR (human versus Pneumocystis jirovecii)
experiment: Selectivity ratio of IC50 for human recombinant DHFR to IC50 for Pneumocystis jirovecii recombinant DHFR
condition-context: read-out: Ratio IC50
// return a plain number; no unit text

> print(dat)
                         structure.notation          parameter  value
1  Cc1c(Sc2cccc3ccccc23)n(C)c2nc(N)nc(N)c12  selectivity ratio      6
2  Cc1c(Sc2ccc(OC(F)(F)F)cc2)n(C)c2nc(N)nc(N)c12  selectivity ratio     10
3  COc1cccc(Sc2c(C)c3c(N)nc(N)nc3n2C(C)C)c1  selectivity ratio      8
4      COc1ccc(Sc2c(C)c3c(N)nc(N)nc3n2C)cc1  selectivity ratio      6
5  Cc1c(Sc2ccc(F)c(F)c2)n(C)c2nc(N)nc(N)c12  selectivity ratio      8

# ---- query molecule ----
Query: Which selectivity ratio value belongs to Cc1c(Sc2ccc3ccccc3c2)[nH]c2nc(N)nc(N)c12 ?
Response: 12
